biological target: Atrial natriuretic peptide receptor 2 (Homo sapiens); experiment: Natriuretic polypeptide receptor (hNpr2) antagonism - Pilot subtype selectivity assay (AID 1347050); conditions: NPR2-expressing cells, cGMP antagonist-mode read-out; series mostly up to 38.3 µM
Records with an inconclusive call do not appear. The source made the active and inactive calls. Calls follow the shape of the full dose curve.
Outcome codes: active, inactive

Compound	Discrete label
CC(C)(CO)Cc1cc(C(C)(C)C)c(O)c(C(C)(C)C)c1	inactive
c1ccc2c(c1)CC(N1CCN(c3cccc4c3OCCO4)CC1)C2	inactive
c1ccc2nc(C3=NCCN3)ccc2c1	inactive
O=C1NC(=O)c2cc(Nc3ccccc3)c(Nc3ccccc3)cc21	inactive
O=C(O)[C@H]1NCCC[C@H]1C(=O)O	inactive
O=C(O)C1=CC(=C(c2ccc(O)c(C(=O)O)c2)c2ccc(O)c(C(=O)O)c2)C=CC1=O	inactive
O=c1[nH]c2ccccc2c2ccccc12	inactive
CNc1ncnc2c1ncn2[C@H]1C[C@H](OP(=O)(O)O)[C@@H](COP(=O)(O)O)O1	inactive
[N-]=[N+]=Nc1ccc(C(=O)CSC[C@H](NC(=O)CC[C@H](N)C(=O)O)C(=O)NCC(=O)O)cc1	inactive
O=C(O)C1=CCCN(CCON=C(c2ccccc2)c2ccccc2)C1	inactive
O=[N+]([O-])c1cccc2c(Br)[nH]nc12	inactive
N[C@@H](Cc1c[nH]c2ccccc12)C(=O)O	inactive
CCCC(=O)NCCc1c2n(c3ccc(OC)cc13)CCCc1ccccc1-2	inactive
O=C1Nc2ccc(I)cc2/C1=C/c1cc(Br)c(O)c(Br)c1	inactive
C#CC(N)CCC(=O)O (centres undefined)	inactive
CCCCC[C@H](CC(=O)NO)C(=O)N[C@H](C(=O)N1CCC[C@H]1CO)C(C)C	inactive
COc1ccc(CCN(C)CCc2ccc(OC)c(OC)c2)cc1OC	inactive
Cc1nc(N=Nc2ccc(S(=O)(=O)O)cc2S(=O)(=O)O)c(COP(=O)(O)O)c(C=O)c1O	inactive
Clc1nccc2c1ccc1ccccc12	inactive
O=C(O)C1CCNCC1	inactive
NC(=Nc1ccccc1)NC(=O)c1nc(Cl)c(N)nc1N	inactive
CC(=O)O[C@H]1Cc2ccccc2N(C(N)=O)c2ccccc21	inactive
Nc1ccc(-c2ccc3ccccc3n2)cc1	active
O=C(O)Cc1ccc(O)c(O)c1	inactive

Recorded values, source PubChem BioAssay (NCATS).
